Tested on: smallflower flatsedge
protocol_description: Test B flood test smallflower flatsedge
Type: in vivo, Cyperus difformis
stated_conditions: Rate 125 g/ha; under heading Pre-emergence; flood test species; visual evaluation after twelve to sixteen days
Field: S. Flatsedge plant response rating (0 to 10 scale, 0 is no effect, 10 is complete control). Provide a value for each of the compounds that follow.
Please give the numeric answer without any surrounding text.

# query: S. Flatsedge plant response rating (0 to 10 scale, 0 is no effect, 10 is complete control) | item "CC(C)C(=O)Cn1c(=O)on(C(=O)N(c2ccccc2)C(C)C)c1=O" | system: smallflower flatsedge
0

Report S. Flatsedge plant response rating (0 to 10 scale, 0 is no effect, 10 is complete control) for "CCOc1nc(C(F)(F)F)c(Cn2c(=O)on(C(=O)N(c3ccc(F)cc3)C(C)C)c2=O)s1" tested on smallflower flatsedge.
0

Give S. Flatsedge plant response rating (0 to 10 scale, 0 is no effect, 10 is complete control) (smallflower flatsedge) of the following compound: "COP(=O)(CCn1c(=O)on(C(=O)N(c2ccccc2)C(C)C)c1=O)OC"
0

What S. Flatsedge plant response rating (0 to 10 scale, 0 is no effect, 10 is complete control) appears in the records for this compound with smallflower flatsedge? "CC(C)N(C(=O)n1oc(=O)n(CC(=O)N(C)C)c1=O)c1ccc(F)cc1"
0

smallflower flatsedge / S. Flatsedge plant response rating (0 to 10 scale, 0 is no effect, 10 is complete control) / COC(=O)C(C)n1c(=O)on(C(=O)N(c2ccc(Cl)cc2)C(C)C)c1=O (stereo not shown) : value?
0

What measured S. Flatsedge plant response rating (0 to 10 scale, 0 is no effect, 10 is complete control) is associated with "CCOc1nc(C(F)(F)F)c(Cn2c(=O)on(C(=O)N(c3ccccc3)C(C)C)c2=O)s1" on smallflower flatsedge?
0

S. Flatsedge plant response rating (0 to 10 scale, 0 is no effect, 10 is complete control) of CCOP(=O)(OCC)C(C)n1c(=O)on(C(=O)N(c2ccc(F)cc2)C(C)C)c1=O (stereo not shown) on smallflower flatsedge?
0

Lab note: need S. Flatsedge plant response rating (0 to 10 scale, 0 is no effect, 10 is complete control) with smallflower flatsedge for entry CC(C)N(C(=O)n1oc(=O)n(C(C)C(=O)c2ccccc2)c1=O)c1ccccc1 (stereo not shown) , please look it up.
0

Request - read-out S. Flatsedge plant response rating (0 to 10 scale, 0 is no effect, 10 is complete control) | tested on smallflower flatsedge | compound "CC(C)N(C(=O)n1oc(=O)n(CC2CC2)c1=O)c1ccc(Cl)cc1"
0

Missing value: S. Flatsedge plant response rating (0 to 10 scale, 0 is no effect, 10 is complete control), smallflower flatsedge, entry "C=C(Cn1c(=O)on(C(=O)N(c2ccccc2)C(C)C)c1=O)c1ccc(F)cc1" . Fill in?
0
